biological target: human PD-1 (Jurkat-PD-1 cells) / PE-labeled human PD-L1-Ig (Homo sapiens, UniProt Q15116); construct: expressed in transfected cells; host or cells: Jurkat cell line over-expressing human PD-1; assay: Jurkat-PD-1 Cell Binding High-Content Screening Assay (CBA); Jurkat hPD1-PDL1 assay; conditions: Jurkat cell line over-expressing human PD-1; PE-labeled PD-L1-Ig 20 nM final; compound incubated 2 hours at 37° C.; read-out: Jurkat HPD1-PDL1 IC50
Sequence (Q15116 25-288): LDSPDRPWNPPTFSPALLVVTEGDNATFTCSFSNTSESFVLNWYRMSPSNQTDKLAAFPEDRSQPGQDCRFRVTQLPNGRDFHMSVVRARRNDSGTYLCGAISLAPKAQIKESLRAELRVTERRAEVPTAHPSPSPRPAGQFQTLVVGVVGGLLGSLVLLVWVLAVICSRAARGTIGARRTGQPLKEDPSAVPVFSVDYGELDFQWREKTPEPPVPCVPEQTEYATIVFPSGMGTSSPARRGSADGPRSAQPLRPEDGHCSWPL
pIC50: −log10 of the molar value. Positions of bridges follow the written chain, without caps; N, C: chain ends. Non-standard residues stand in square brackets, D forms with d. Residues, ends and D or L forms follow the SMILES beside them. Bip = N[C@@H](Cc1ccc(-c2ccccc2)cc1)C(=O)O; NMeF = CN[C@@H](Cc1ccccc1)C(=O)O; 4Pal = N[C@@H](Cc1ccncc1)C(=O)O; NMeA = CN[C@@H](C)C(=O)O; Dap = NC[C@H](N)C(=O)O; Sar = CNCC(=O)O
The following molecules are shown together with reported pIC50 values.
EXPERIMENTAL ENDPOINT: pIC50

INSERT INTO assay_data (molecule, experimental_endpoint, numeric_readout) VALUES
  ('CC(C)C[C@@H]1NC(=O)[C@H](CCCNC(=N)N)NC(=O)[C@H](Cc2ccccc2)N(C)C(=O)[C@H](C)N(C)C(=O)[C@H](CCCNC(=N)N)NC(=O)[C@H](Cc2ccc(-c3ccccc3)cc2)NC(=O)[C@H](C(C)C)NC(=O)[C@H](Cc2c[nH]c3ccccc23)NC(=O)[C@H](CC(=O)O)NC(=O)[C@H](Cc2ccc(O)cc2)NC(=O)[C@H](Cc2ccccc2)NC(=O)CSC[C@@H](C(=O)NCC(N)=O)NC(=O)[C@H](CN)NC(=O)[C@H](C(C)C)NC1=O [Example 1330] ({CH2CO}-FYDWV[Bip]R[NMeA][NMeF]RLV[Dap]CG-NH2; thioether N-14)', 'pIC50', 6.41),
  ('CC(C)C[C@@H]1NC(=O)[C@H](Cc2c[nH]c3ccccc23)NC(=O)[C@H](CC(=O)O)NC(=O)[C@H](Cc2ccncc2)NC(=O)[C@H](Cc2ccccc2)NC(=O)CSC[C@@H](C(=O)N[C@@H](C)C(N)=O)NC(=O)[C@H](CO)NC(=O)[C@H](C(C)C)NC(=O)[C@H](CC(C)C)NC(=O)[C@H](CC(N)=O)NC(=O)CN(C)C(=O)[C@H](C)N(C)C(=O)[C@H](C(C)C)NC(=O)[C@H](Cc2ccc(-c3ccccc3)cc2)NC1=O [Example 1064] ({CH2CO}-F[4Pal]DWL[Bip]V[NMeA][Sar]NLVSCA-NH2; thioether N-14)', 'pIC50', 6.80);
